Assay: qHTS assay for small molecule antagonists of peroxisome proliferator-activated receptor delta signaling (AID 588535);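 also: cells co-treated with a PPAR-delta agonist as stimulator during compound exposure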
Details: HEK293T PPARd-UAS-bla, beta-lactamase FRET ratio, 18 h; 460 nm channel
Excerpt: NIH Chemical Genomics Center [NCGC] U.S. Environmental Protection Agency [EPA] National Institutes of Environmental Health Sciences [NIEHS] National Toxicology Program [NTP] NCGC Assay Overview The Peroxisome proliferator-activated receptors (PPARs) are lipid-activated transcription factors of the nuclear receptor superfamily with three distinct subtypes namely PPAR alpha, PPAR delta (also called PPAR beta) and PPAR gamma. […]
Results filed as inconclusive are left out.
Catalogue of max response readings, one per entry.

- compound: "CCOCCOCCOC(C)=O"
  endpoint_unit: "%"
  max response: 31.4
- compound: "C[Si](C)(Cl)[Si](C)(C)Cl"
  endpoint_unit: "%"
  max response: -22.7
- compound: "CSc1ccc(Cl)cc1"
  endpoint_unit: "%"
  max response: 24.7
- compound: "C1=C/CC/C=C/CC/C=C/CC/1"
  endpoint_unit: "%"
  max response: 18.8
- compound: "CCCCC(CC)COP(=O)(O)OCC(CC)CCCC (centres undefined)"
  endpoint_unit: "%"
  max response: -17.6
- compound: "CCCCCCCCCCCC[N+](C)(C)C"
  endpoint_unit: "%"
  max response: -26.8
- compound: "C=C(C)C(=O)OCCN(C)C"
  endpoint_unit: "%"
  max response: -44.3
- compound: "CC(C)(C)C(O)/C(=C\\c1ccc(Cl)cc1)n1cncn1 (centres undefined)"
  endpoint_unit: "%"
  max response: -55.9
- compound: "Cc1cc(C)c(N)c(Cl)c1"
  endpoint_unit: "%"
  max response: 24.2
- compound: "C#CCOC(=O)[C@@H](C)Oc1ccc(Oc2ncc(Cl)cc2F)cc1"
  endpoint_unit: "%"
  max response: 41.4
- compound: "O=C=NCCCCCCN=C=O"
  endpoint_unit: "%"
  max response: 15.2
- compound: "COc1cc(Cl)c(OC)cc1N"
  endpoint_unit: "%"
  max response: -0.344
- compound: "C[Si]1(C)O[Si](C)(C)O[Si](C)(C)O[Si](C)(C)O[Si](C)(C)O1"
  endpoint_unit: "%"
  max response: 5.15
- compound: "C1CCC2(CCCCO2)OC1"
  endpoint_unit: "%"
  max response: 51.5
- compound: "O=C1CCCCCCCCCCC1"
  endpoint_unit: "%"
  max response: 31.3
- compound: "CC(C)(C)c1ccc(C(=O)O)cc1"
  endpoint_unit: "%"
  max response: 29.8
- compound: "OC1CCCCCCCCCCC1"
  endpoint_unit: "%"
  max response: 17.8
- compound: "CCCCCCCC/C=C\\CCCCCCCCO"
  endpoint_unit: "%"
  max response: 8.68
- compound: "O=C(O)CN(CCCN(CC(=O)O)CC(=O)O)CC(=O)O"
  endpoint_unit: "%"
  max response: -69.3

----------
test: qHTS assay for environmental chemicals that activate the Aryl hydrocarbon Receptor (AhR) signaling pathway (AID 651777); conditions: 1A2-DRE human hepatoma cells, luciferase, 24 h; stronger effect = higher value; also: % of control where 0% means no effect
Inconclusive results are not listed.
# activation values compiled below
test_readout: activation (%)

- compound: "CC1(C)CC(NCCCCCCNC2CC(C)(C)NC(C)(C)C2)CC(C)(C)N1"
  endpoint_unit: "%"
  quantitative_result: 0.472
- compound: "Cc1ccc(C(C)(C)C)c(O)c1"
  endpoint_unit: "%"
  quantitative_result: 1.48
- compound: "CCCC/C=C/CCCCO"
  endpoint_unit: "%"
  quantitative_result: -0.731
- compound: "O=C(OCCOCCOC(=O)c1ccccc1)c1ccccc1"
  endpoint_unit: "%"
  quantitative_result: 1.92
- compound: "CCCCCCCCCCCCCCO"
  endpoint_unit: "%"
  quantitative_result: 0.688
- compound: "C=C(C)C(=O)OCCCCCCCCCCCC"
  endpoint_unit: "%"
  quantitative_result: 1.15
- compound: "CCOC(=O)[C@H](C)Oc1ccc(Oc2nc3ccc(Cl)cc3o2)cc1"
  endpoint_unit: "%"
  quantitative_result: 13.7
- compound: "CCCCCCCCCC(C)=O"
  endpoint_unit: "%"
  quantitative_result: 0.0383
- compound: "Nc1cc(Cl)nc(C(=O)O)c1Cl"
  endpoint_unit: "%"
  quantitative_result: 1.56
- compound: "COC(=O)C(C)Oc1ccc(Oc2ncc(C(F)(F)F)cc2Cl)cc1 (stereo not given)"
  endpoint_unit: "%"
  quantitative_result: 0.251
- compound: "CN(C)c1nc(=O)n(C2CCC(O)CC2)c(=O)n1C (stereo not given)"
  endpoint_unit: "%"
  quantitative_result: -0.637
- compound: "CC/C=C/CCCCCCCCCCOC(C)=O"
  endpoint_unit: "%"
  quantitative_result: -0.59
- compound: "CC(C)=CCC[C@@H](C)[C@H]1CC[C@@]2(C)C3=C(CC[C@]12C)[C@@]1(C)CC[C@H](O)C(C)(C)[C@@H]1CC3"
  endpoint_unit: "%"
  quantitative_result: 1.89
- compound: "CCCCCCC(O)CCCCCCCCCCC(=O)O (stereo not given)"
  endpoint_unit: "%"
  quantitative_result: -0.827
- compound: "C[Si]1(C)O[Si](C)(C)O[Si](C)(C)O[Si](C)(C)O1"
  endpoint_unit: "%"
  quantitative_result: -0.142
- compound: "O=C(c1ccc(Cl)cc1)c1ccc(Cl)cc1"
  endpoint_unit: "%"
  quantitative_result: -0.153
- compound: "C[Si](C)(C)N[Si](C)(C)C"
  endpoint_unit: "%"
  quantitative_result: 1.22
- compound: "O=C(O)C(c1ccc(Cl)cc1)c1ccc(Cl)cc1"
  endpoint_unit: "%"
  quantitative_result: -0.789
- compound: "CCCCC(CC)COP(=O)(O)OCC(CC)CCCC (stereo not given)"
  endpoint_unit: "%"
  quantitative_result: -0.89
- compound: "C=C(C)C(=O)OCCCCCCCCCCCCCCCC"
  endpoint_unit: "%"
  quantitative_result: 0.0765
